Target: TBK1 (Homo sapiens, UniProt Q9UHD2)
Sequence (Q9UHD2 1-729): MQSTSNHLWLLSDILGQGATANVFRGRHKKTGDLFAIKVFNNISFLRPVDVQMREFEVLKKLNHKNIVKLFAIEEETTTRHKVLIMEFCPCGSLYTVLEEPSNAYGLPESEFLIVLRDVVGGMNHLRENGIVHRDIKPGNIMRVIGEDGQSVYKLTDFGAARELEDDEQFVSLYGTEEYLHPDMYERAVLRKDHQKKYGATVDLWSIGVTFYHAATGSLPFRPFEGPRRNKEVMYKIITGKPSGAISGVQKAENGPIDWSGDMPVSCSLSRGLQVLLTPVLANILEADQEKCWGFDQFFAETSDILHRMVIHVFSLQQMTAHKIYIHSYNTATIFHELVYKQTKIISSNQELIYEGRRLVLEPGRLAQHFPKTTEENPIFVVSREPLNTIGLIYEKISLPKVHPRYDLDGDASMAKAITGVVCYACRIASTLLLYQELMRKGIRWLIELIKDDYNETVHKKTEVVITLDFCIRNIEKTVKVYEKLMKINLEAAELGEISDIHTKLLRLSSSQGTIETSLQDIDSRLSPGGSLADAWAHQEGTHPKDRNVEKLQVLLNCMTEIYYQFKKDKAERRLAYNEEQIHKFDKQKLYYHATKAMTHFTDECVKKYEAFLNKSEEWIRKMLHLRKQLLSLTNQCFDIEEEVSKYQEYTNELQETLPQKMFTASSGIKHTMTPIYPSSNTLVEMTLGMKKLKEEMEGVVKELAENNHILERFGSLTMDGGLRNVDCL
Test: Kinase profiling (radiometric filter-binding)
Format: biochemical
Conditions: TBK1, 1 µM inhibitor; read-out: Residual activity, %
Square brackets hold non-standard residues; d marks the D form. Peptide text beside a SMILES is read from it. * marks the point of attachment. X3 = O=C(CCCCCNCc1nc2c(sc3cc(Br)cnc32)c(=O)[nH]1)*
measurement.kind: remaining activity at 1 µM (%)
# value in %; strip the unit string

compound | numeric.value
N=C(N)NCCC[C@@H](NC(=O)CNC(=O)[C@@H](CCCNC(=N)N)NC(=O)[C@@H](CCCNC(=N)N)NC(=O)CCCCCCCNCc1nc2c(sc3cc(Br)cnc32)c(=O)[nH]1)C(=O)N[C@H](CCCCN)C(N)=O [Compound 1, BPTP-Aoc-(D-Arg)2-Gly-D-Arg-D-Lys-NH2] | 113
CN(C)c1ccc2c(c1)Oc1cc(N(C)C)ccc1C21OC(=O)c2cc(C(=O)NCCCC[C@@H](NC(=O)[C@@H](CCCNC(=N)N)NC(=O)CNC(=O)[C@@H](CCCNC(=N)N)NC(=O)[C@@H](CCCNC(=N)N)NC(=O)CCCCc3cn(Cc4nc5c(sc6ccc(Br)cc65)c(=O)[nH]4)nn3)C(N)=O)ccc21 [Compound 8] | 46

Could you now consider this next compound?
Tell us which remaining activity at 1 µM value is on record for N=C(N)NCCC[C@@H](NC(=O)CCCCCNCc1nc2c(sc3cc(Br)cnc32)c(=O)[nH]1)C(=O)N[C@H](CCCNC(=N)N)C(=O)N[C@H](CCCNC(=N)N)C(=O)N[C@H](CCCNC(=N)N)C(=O)N[C@H](CCCNC(=N)N)C(=O)N[C@H](CCCNC(=N)N)C(=O)N[C@H](CCCCN)C(N)=O [ARC-3126, BPTP-Ahx-(D-Arg)6-D-Lys-NH2] (X3-[dR][dR][dR][dR][dR][dR][dK]-NH2) 105

----------
Molecular target: CHK1 (Homo sapiens)
Sequence (O14757 1-476): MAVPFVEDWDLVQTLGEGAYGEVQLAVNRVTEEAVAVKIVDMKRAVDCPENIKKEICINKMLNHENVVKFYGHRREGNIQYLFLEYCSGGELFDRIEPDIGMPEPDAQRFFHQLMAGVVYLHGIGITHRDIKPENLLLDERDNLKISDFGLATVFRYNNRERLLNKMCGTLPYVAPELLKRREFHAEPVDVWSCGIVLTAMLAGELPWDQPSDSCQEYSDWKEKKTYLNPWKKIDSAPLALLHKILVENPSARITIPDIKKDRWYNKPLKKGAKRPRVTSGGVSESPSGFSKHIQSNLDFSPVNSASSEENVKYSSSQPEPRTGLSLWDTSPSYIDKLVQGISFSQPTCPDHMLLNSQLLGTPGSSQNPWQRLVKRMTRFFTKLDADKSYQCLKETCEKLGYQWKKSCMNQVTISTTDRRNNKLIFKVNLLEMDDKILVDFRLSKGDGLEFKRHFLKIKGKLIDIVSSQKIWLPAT
Experiment: Kinase profiling (radiometric filter-binding)
Type: biochemical
Settings: CHK1, 1 µM inhibitor; read-out: Residual activity, %
Description: Kinase selectivity profiling was performed using the commercial service provided by the MRC PPU International Centre for Kinase Profiling (Dundee, UK) using a radiometric filter-binding assay. Kinases used for analysis were of human origin. The ATP concentration applied for inhibition measurements was at or below the ATP KM value of the particular PK. […] Residual activities were expressed as the percentage of retained activity compared to the control without inhibitor.
Square brackets hold non-standard residues; d marks the D form. Peptide text beside a SMILES is read from it. * marks the point of attachment. X3 = O=C(CCCCCNCc1nc2c(sc3cc(Br)cnc32)c(=O)[nH]1)*
measurement.kind: remaining activity at 1 µM (%)
Give just the number in %; leave the unit off.

Quote remaining activity at 1 µM with test system CHK1 (Homo sapiens) for N=C(N)NCCC[C@@H](NC(=O)CNC(=O)[C@@H](CCCNC(=N)N)NC(=O)[C@@H](CCCNC(=N)N)NC(=O)CCCCCCCNCc1nc2c(sc3ccc(Br)cc32)c(=O)[nH]1)C(=O)N[C@H](CCCCN)C(N)=O [Compound 2, BBTP-Aoc-(D-Arg)2-Gly-D-Arg-D-Lys-NH2] 112

// output remaining activity at 1 µM; input N=C(N)NCCC[C@@H](NC(=O)CCCCCNCc1nc2c(sc3cc(Br)cnc32)c(=O)[nH]1)C(=O)N[C@H](CCCNC(=N)N)C(=O)N[C@H](CCCNC(=N)N)C(=O)N[C@H](CCCNC(=N)N)C(=O)N[C@H](CCCNC(=N)N)C(=O)N[C@H](CCCNC(=N)N)C(=O)N[C@H](CCCCN)C(N)=O [ARC-3126, BPTP-Ahx-(D-Arg)6-D-Lys-NH2] (X3-[dR][dR][dR][dR][dR][dR][dK]-NH2) ; system CHK1 (Homo sapiens) 100

Quote CHK1 (Homo sapiens) remaining activity at 1 µM for entry N=C(N)NCCC[C@@H](NC(=O)CCCCCNC(=O)Cn1cnc2c(I)c(I)c(I)c(I)c21)C(=O)N[C@H](CCCNC(=N)N)C(=O)N[C@H](CCCNC(=N)N)C(=O)N[C@H](CCCNC(=N)N)C(=O)N[C@H](CCCNC(=N)N)C(=O)N[C@H](CCCNC(=N)N)C(=O)N[C@H](CCCCN)C(N)=O [ARC-3125, TIBI-CH2-C(=O)-Ahx-(D-Arg)6-D-Lys-NH2] . 76

Fill in: remaining activity at 1 µM on CHK1 (Homo sapiens), entry N=C(N)NCCC[C@@H](NC(=O)CNC(=O)[C@@H](CCCNC(=N)N)NC(=O)[C@@H](CCCNC(=N)N)NC(=O)CCCCCCCNCc1nc2c(sc3cc(Br)cnc32)c(=O)[nH]1)C(=O)N[C@H](CCCCN)C(N)=O [Compound 1, BPTP-Aoc-(D-Arg)2-Gly-D-Arg-D-Lys-NH2] 122

State measured remaining activity at 1 µM of the compound N=C(N)NCCC[C@@H](NC(=O)CNC(=O)[C@@H](CCCNC(=N)N)NC(=O)[C@@H](CCCNC(=N)N)NC(=O)Cn1cc(CNCc2nc3c(sc4ccc(Br)cc43)c(=O)[nH]2)nn1)C(=O)N[C@H](CCCCN)C(N)=O [Compound 3, BBTP-Amt-(D-Arg)2-Gly-D-Arg-D-Lys-NH2] with CHK1 (Homo sapiens). 104

----------
Target: ABL (Homo sapiens)
Sequence (P00519 whole entry): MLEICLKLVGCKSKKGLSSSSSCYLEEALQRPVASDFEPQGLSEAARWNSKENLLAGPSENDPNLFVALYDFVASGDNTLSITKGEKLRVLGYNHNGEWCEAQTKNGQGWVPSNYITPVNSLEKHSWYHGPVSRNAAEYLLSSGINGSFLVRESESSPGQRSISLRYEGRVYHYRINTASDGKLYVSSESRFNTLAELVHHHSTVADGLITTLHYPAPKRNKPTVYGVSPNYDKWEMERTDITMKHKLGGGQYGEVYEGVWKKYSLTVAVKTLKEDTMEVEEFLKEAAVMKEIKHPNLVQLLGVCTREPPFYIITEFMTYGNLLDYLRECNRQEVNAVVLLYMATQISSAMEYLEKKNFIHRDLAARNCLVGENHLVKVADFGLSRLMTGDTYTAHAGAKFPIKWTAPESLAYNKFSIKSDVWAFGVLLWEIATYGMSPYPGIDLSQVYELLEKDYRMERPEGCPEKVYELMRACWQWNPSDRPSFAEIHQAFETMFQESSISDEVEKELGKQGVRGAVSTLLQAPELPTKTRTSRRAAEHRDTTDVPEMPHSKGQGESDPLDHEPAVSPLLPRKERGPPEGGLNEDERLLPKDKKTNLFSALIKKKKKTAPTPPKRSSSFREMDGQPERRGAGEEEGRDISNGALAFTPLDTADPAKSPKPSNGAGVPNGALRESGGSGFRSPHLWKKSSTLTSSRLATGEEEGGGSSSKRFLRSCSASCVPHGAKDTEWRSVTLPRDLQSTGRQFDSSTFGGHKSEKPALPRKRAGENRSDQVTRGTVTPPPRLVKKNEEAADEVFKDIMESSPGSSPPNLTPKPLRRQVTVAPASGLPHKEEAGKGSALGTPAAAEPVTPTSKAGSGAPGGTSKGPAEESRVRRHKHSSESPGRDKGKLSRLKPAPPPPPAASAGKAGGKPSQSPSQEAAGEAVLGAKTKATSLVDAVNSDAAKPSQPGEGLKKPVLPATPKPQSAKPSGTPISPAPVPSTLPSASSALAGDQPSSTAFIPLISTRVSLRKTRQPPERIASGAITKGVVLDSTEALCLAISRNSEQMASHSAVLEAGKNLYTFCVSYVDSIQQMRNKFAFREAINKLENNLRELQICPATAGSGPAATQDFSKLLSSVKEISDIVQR
Assay: Kinase profiling (radiometric filter-binding)
Assay type: biochemical
Details: 1 µM inhibitor, read-out: Residual activity, %
Square brackets hold non-standard residues; d marks the D form. Peptide text beside a SMILES is read from it. * marks the point of attachment. X3 = O=C(CCCCCNCc1nc2c(sc3cc(Br)cnc32)c(=O)[nH]1)*
measurement.kind: remaining activity at 1 µM (%)
Write the answer as a number in %, unit excluded.

Answer with the recorded remaining activity at 1 µM for the molecule listed here: N=C(N)NCCC[C@@H](NC(=O)CCCCCNCc1nc2c(sc3cc(Br)cnc32)c(=O)[nH]1)C(=O)N[C@H](CCCNC(=N)N)C(=O)N[C@H](CCCNC(=N)N)C(=O)N[C@H](CCCNC(=N)N)C(=O)N[C@H](CCCNC(=N)N)C(=O)N[C@H](CCCNC(=N)N)C(=O)N[C@H](CCCCN)C(N)=O [ARC-3126, BPTP-Ahx-(D-Arg)6-D-Lys-NH2] (X3-[dR][dR][dR][dR][dR][dR][dK]-NH2) 116

State its remaining activity at 1 µM for this molecule: N=C(N)NCCC[C@@H](NC(=O)CCCCCNC(=O)Cn1cnc2c(I)c(I)c(I)c(I)c21)C(=O)N[C@H](CCCNC(=N)N)C(=O)N[C@H](CCCNC(=N)N)C(=O)N[C@H](CCCNC(=N)N)C(=O)N[C@H](CCCNC(=N)N)C(=O)N[C@H](CCCNC(=N)N)C(=O)N[C@H](CCCCN)C(N)=O [ARC-3125, TIBI-CH2-C(=O)-Ahx-(D-Arg)6-D-Lys-NH2] 106
